Exercise: state measured Trimeric HA Binding: RLU for each of the binders provided.
Tgt: recombinant homotrimeric HA A/Japan/305/57 H2N2 (Influenza A virus A/Japan/305/1957(H2N2))
Protocol details: protein microarray, purified IgG, trimeric HA
Details: remark: other sources report otherwise
State the value with its unit after it.

Form field: reported Trimeric HA Binding: RLU of TCN-536 (5095_N01) (antibody, V domains shown) VH: QVQLQQWGAGLLKPSETLSLTCAVYGGSFSVSGYYWSWIRQPPGRGLEWIGEISHGGSTNYNPSLKSRVTISVDTTKNQFSLRLSSVTAADTAVYYCARGTDPDTEVYCRVGNCAAFDYWGQGSLVTVSS VL: EIILAQSPGTLSLSPGERATLSCRASQFVSTRSLAWYQQRPGQAPRLLIYGASSRATGIPDRFSGSGSGTDFTLTISRLEPEDFAVYYCQHYGYSPRYAFGQGSKVEIK
771 RLU

Form field: reported Trimeric HA Binding: RLU of TCN-531 (5091_H13) (antibody, V domains shown) VH: EVQLVESGGDLVQPGRSLKLSCTGSGFTFGDYGVTWVRQAPGKGLEWVGFIRTRPWGGTADTAASVKGRFTISRDDSKSLAYLQMNSLKTEDTAVYYCCRDAPPNVEVASMTNWYFDLWGRGTLVTVSS VL: DIQLTQSPSSLSASVGDRVTITCRASQGILNCLAWYQQKPGKVPNLLMYAASTLQSGVPSRFSGSGFGTDFTLTISSLQPEDVATYYCQTYGGVSTFGGGTKVEIR
441 RLU
